Target: cAMP and cAMP-inhibited cGMP 3',5'-cyclic phosphodiesterase 10A (Homo sapiens)
Sequence (Q9Y233 whole entry): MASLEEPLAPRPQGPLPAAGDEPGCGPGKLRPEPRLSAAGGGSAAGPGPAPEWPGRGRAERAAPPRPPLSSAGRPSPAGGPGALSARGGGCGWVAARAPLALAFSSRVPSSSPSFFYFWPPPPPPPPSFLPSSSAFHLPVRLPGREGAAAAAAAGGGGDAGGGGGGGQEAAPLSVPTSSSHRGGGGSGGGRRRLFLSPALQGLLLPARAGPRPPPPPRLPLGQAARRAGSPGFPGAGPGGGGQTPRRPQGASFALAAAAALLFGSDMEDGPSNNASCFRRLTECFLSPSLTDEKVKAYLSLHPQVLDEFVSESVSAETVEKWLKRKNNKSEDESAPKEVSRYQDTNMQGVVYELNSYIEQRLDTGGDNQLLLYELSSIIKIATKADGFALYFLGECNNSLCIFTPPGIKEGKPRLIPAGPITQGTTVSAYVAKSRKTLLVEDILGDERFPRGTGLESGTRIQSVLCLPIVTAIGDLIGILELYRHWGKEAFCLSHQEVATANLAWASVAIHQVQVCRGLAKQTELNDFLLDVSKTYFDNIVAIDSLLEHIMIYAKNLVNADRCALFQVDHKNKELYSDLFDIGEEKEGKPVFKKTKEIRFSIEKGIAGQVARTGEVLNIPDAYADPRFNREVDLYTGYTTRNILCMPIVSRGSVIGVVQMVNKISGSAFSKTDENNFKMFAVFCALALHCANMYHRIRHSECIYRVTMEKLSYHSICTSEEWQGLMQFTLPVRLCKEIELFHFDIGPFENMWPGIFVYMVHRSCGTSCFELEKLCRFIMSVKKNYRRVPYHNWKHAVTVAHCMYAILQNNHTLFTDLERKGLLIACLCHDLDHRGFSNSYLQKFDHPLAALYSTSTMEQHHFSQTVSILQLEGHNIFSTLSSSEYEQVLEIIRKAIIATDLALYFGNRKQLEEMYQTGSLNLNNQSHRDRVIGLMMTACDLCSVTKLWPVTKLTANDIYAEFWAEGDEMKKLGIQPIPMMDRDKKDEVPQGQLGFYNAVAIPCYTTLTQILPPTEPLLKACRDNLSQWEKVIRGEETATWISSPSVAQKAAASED
Test: Inhibition of human PDE10A2 transfected in human AD293 cells cytosolic fraction using cAMP as substrate by fluorescence polarization assay
metric: pKi
Interpret pKi as the negative base-10 log of the concentration measured in mol/L.

In: # input compound: Cc1cnc(OC[C@H]2C[C@@H]2c2ccccn2)cc1NCc1cnn(C)c1 ; wanted: its pKi
Out: 8.11
